These entries and their values trace back to PubChem BioAssay (EPA / NIEHS).

# assayExplanation: BSK_CASM3C_Proliferation: Cell Proliferation Assessment in the BioMAP Diversity Plus: CASM3C Assay (AID 2283047);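 note: sulforhodamine B total protein stain as relative cell number at 560 nm; sub-confluent cells exposed 48 h before staining; fitted both ways against DMSO so gain or loss of cell number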
# testSettings: primary human coronary artery smooth muscle cells
Calls of active or inactive are those of the source. Rule for the calls: active = hit-call score of the fitted dose curve at least 0.9, where 1 is the maximum; inactive = score below 0.9.
Possible outcomes: active, inactive

{"compound": "CC(C)(C)OOC(C)(C)CCC(C)(C)OOC(C)(C)C", "assignedClass": "inactive"}
{"compound": "Clc1ccccc1Cl", "assignedClass": "inactive"}
{"compound": "CCCCCOC(=O)c1ccccc1C(=O)OCCCCC", "assignedClass": "inactive"}
{"compound": "O=Cc1ccco1", "assignedClass": "inactive"}
{"compound": "ClC1=C(Cl)[C@]2(Cl)[C@H]3[C@H]([C@@H]4C=C[C@H]3C4)[C@@]1(Cl)C2(Cl)Cl", "assignedClass": "active"}
{"compound": "CN(C)c1ccc(C(=O)c2ccc(N(C)C)cc2)cc1", "assignedClass": "active"}
{"compound": "N#CC(Br)(Br)C(N)=O", "assignedClass": "inactive"}
{"compound": "CO[C@@H]1[C@H](OC(=O)NC(=O)CCl)CC[C@]2(CO2)[C@H]1[C@@]1(C)O[C@@H]1CC=C(C)C", "assignedClass": "active"}
{"compound": "COC(=O)c1ccccc1N", "assignedClass": "inactive"}
{"compound": "Cc1ccc(N)c(N)c1", "assignedClass": "inactive"}
{"compound": "CCCCCCCCOC(=O)c1ccc(C(=O)OCCCCCCCC)c(C(=O)OCCCCCCCC)c1", "assignedClass": "inactive"}
{"compound": "Clc1ccc(C(c2ccc(Cl)cc2)C(Cl)Cl)cc1", "assignedClass": "active"}
{"compound": "c1ccc(NNc2ccccc2)cc1", "assignedClass": "inactive"}
{"compound": "CCCCCCCCn1sccc1=O", "assignedClass": "active"}
{"compound": "CC(C)(C)OOC(=O)c1ccccc1", "assignedClass": "active"}
{"compound": "CC(C)N(Cc1ccccc1)C(=O)C(C)(C)C", "assignedClass": "inactive"}
{"compound": "COc1cc(C=O)cc2c1[C@H](COC(N)=O)[C@]1(OC(C)=O)ON2C[C@H]2[C@@H]1N2C(C)=O", "assignedClass": "active"}
{"compound": "CCOC(=O)[C@]1(c2ccccc2)Oc2ccccc2[C@@H]1N", "assignedClass": "inactive"}
{"compound": "O=C(N[C@H](c1ccccc1)[C@@H]1CN2CCC1CC2)c1c(Cl)ccc(C(F)(F)F)c1Cl", "assignedClass": "active"}
{"compound": "Oc1ccccc1Cl", "assignedClass": "inactive"}
{"compound": "CC(C)(C)C(O)(CCc1ccc(Cl)cc1)Cn1cncn1 (configuration not stated)", "assignedClass": "inactive"}
{"compound": "Cc1cc(N=Nc2ccccc2C)ccc1N", "assignedClass": "active"}
{"compound": "ClC1=C(Cl)C2(Cl)C3C(Cl)C=CC3C1(Cl)C2(Cl)Cl (configuration not stated)", "assignedClass": "active"}
{"compound": "CCCSC(=O)N(CCC)CCC", "assignedClass": "inactive"}
{"compound": "OCCCBr", "assignedClass": "inactive"}
{"compound": "CCC12COCN1COC2", "assignedClass": "active"}
{"compound": "O=C(Nc1ccccc1)c1ccccc1I", "assignedClass": "inactive"}
